Data origin: paper PMC7023430

# System: Mycobacterium avium 330/88
# Test Name: Antimycobacterial micromethod in Šula's medium, M. avium
# Type: cell-based
# Assay Context: 330/88, 336 h, 14 days incubation at 37 °C, read-out: MIC M. avium 330/88 14 d
Property Name: MIC (µM)
Give the quantity in µM, number only.

What the record says about O=C(O)c1ccc(N=Cc2cc(Br)ccc2O)cc1 [1d] : MIC is 500

What the record says about O=C(O)c1ccc(N=Cc2cc(Cl)ccc2O)cc1 [1c] : MIC is 1000

What the record says about O=C(O)c1ccc(N=Cc2cc([N+](=O)[O-])ccc2O)cc1 [1f] : MIC is 1000

What the record says about O=C(O)c1ccc(N=Cc2cc(I)ccc2O)cc1 [1e] : MIC is 500

###

Below: a set of entries, each annotated with reported MIC.
# Test system: Trichosporon asahii 1188
# Test Name: Antifungal microdilution broth method, T. asahii
# Assay type: cell-based
# Assay Context: 24 h, read-out: MIC TA 24 h
Give the quantity in µM, number only.

In the examples that follow, each entry is paired with its recorded MIC.
COc1ccc(O)c(C=Nc2ccc(C(=O)O)cc2)c1; 500
O=C(O)c1ccc(N=Cc2cc(I)ccc2O)cc1; 62.5

Turning now to a further record.
Trichosporon asahii 1188 MIC of O=C(O)c1ccc(N=Cc2ccc(Cl)cc2O)cc1 is 500

###

# Tested on: Escherichia coli ATCC 25922, CCM 3954
# Test Name: Antibacterial microdilution broth method, E. coli
# Format: cell-based
# Assay Context: Escherichia coli, 24 h incubation, read-out: MIC EC 24 h
Below: a set of entries, each annotated with reported MIC.

In the examples that follow, each entry is paired with its recorded MIC.
O=C(O)c1ccc(N=Cc2ccc(O)cc2)cc1 [1t]; > 500 µM
Nc1ccc(C(=O)O)cc1 [PABA 1, 4-aminobenzoic acid]; > 500 µM
O=C(O)c1ccc(N=Cc2cc(Cl)cc(I)c2O)cc1 [1p]; 62.5 µM
O=C(O)c1ccc(N=Cc2cc(F)ccc2O)cc1 [1b]; > 500 µM
O=C(O)c1ccc(N=Cc2cc(I)ccc2O)cc1 [1e]; > 250 µM
COc1ccc(O)c(C=Nc2ccc(C(=O)O)cc2)c1 [1h]; > 500 µM
COc1ccccc1C=Nc1ccc(C(=O)O)cc1 [1s]; > 500 µM
O=C(O)c1ccc(N=Cc2cc(O)ccc2O)cc1 [1i]; > 500 µM

What the record says about O=C(O)c1ccc(N=Cc2cc(Cl)cc(Cl)c2O)cc1 [1n] : MIC is > 500 µM

What the record says about O=C(O)c1ccc(N=Cc2ccc([N+](=O)[O-])o2)cc1 [1r] : MIC is > 500 µM

What the record says about O=C(O)c1ccc(N=Cc2cc(Cl)ccc2O)cc1 [1c] : MIC is > 500 µM

###

Below: a set of entries, each annotated with reported MIC.
# Tested on: Trichosporon asahii 1188
# Test Name: Antifungal microdilution broth method, T. asahii
# Format: cell-based
# Assay Context: 24 h, read-out: MIC TA 24 h
Give the quantity in µM, number only.

Trichosporon asahii 1188 MIC of O=C(O)c1ccc(N=Cc2c(O)cccc2Cl)cc1 is 125

Trichosporon asahii 1188 MIC of O=C(O)c1ccc(N=Cc2cc(Br)ccc2O)cc1 is 125

###

# Tested on: M. kansasii 6509/96 (clinical isolate)
# Test Name: Antimycobacterial micromethod in Šula's medium, M. kansasii 6509/96
# Format: cell-based
# Assay Context: Mycobacterium kansasii, 168 h; 7 days incubation at 37 °C; read-out: MIC M. kansasii 6509/96 7 d
Property Name: MIC (µM)
Give the quantity in µM, number only.

COc1ccc(O)c(C=Nc2ccc(C(=O)O)cc2)c1 [1h]; 500
CC(C)(C)c1ccc(O)c(C=Nc2ccc(C(=O)O)cc2)c1 [1j]; 250
NNC(=O)c1ccncc1 [INH, isoniazid, reference compound]; 8
COc1ccccc1C=Nc1ccc(C(=O)O)cc1 [1s]; 1000
O=C(O)c1ccc(N=Cc2cc(Br)ccc2O)cc1 [1d]; 500

What the record says about O=C(O)c1ccc(N=Cc2ccc(Cl)cc2O)cc1 [1l] : MIC is 250

What the record says about O=C(O)c1ccc(N=Cc2cccc(Cl)c2O)cc1 [1m] : MIC is 250

What the record says about O=C(O)c1ccc(N=Cc2cc(Cl)ccc2O)cc1 [1c] : MIC is 500

What the record says about O=C(O)c1ccc(N=Cc2cc(O)ccc2O)cc1 [1i] : MIC is 500

What the record says about Cc1ccc(O)c(C=Nc2ccc(C(=O)O)cc2)c1 [1g] : MIC is 500

What the record says about O=C(O)c1ccc(N=Cc2cc([N+](=O)[O-])ccc2O)cc1 [1f] : MIC is 500

###

# System: Escherichia coli ATCC 25922, CCM 3954
# Test Name: Antibacterial microdilution broth method, E. coli
# Type: cell-based
# Assay Context: Escherichia coli, 48 h incubation, read-out: MIC EC 48 h
Property Name: MIC

O=C(O)c1ccc(N=Cc2cc(I)cc(I)c2O)cc1 [1q]; 500 µM

What the record says about O=C(O)c1ccc(N=Cc2cc(Cl)ccc2O)cc1 [1c] : MIC is > 500 µM

What the record says about O=C(O)c1ccc(N=Cc2cccc(Cl)c2O)cc1 [1m] : MIC is > 500 µM

What the record says about O=C(O)c1ccc(N=Cc2cc(I)ccc2O)cc1 [1e] : MIC is > 250 µM

What the record says about O=C(O)c1ccc(N=Cc2cc(Cl)cc(Br)c2O)cc1 [1o] : MIC is 500 µM

What the record says about O=C(O)c1ccc(N=Cc2cc(Br)ccc2O)cc1 [1d] : MIC is > 250 µM

What the record says about O=C(O)c1ccc(N=Cc2ccccc2O)cc1 [1a] : MIC is > 500 µM

What the record says about O=C(O)c1ccc(N=Cc2c(O)cccc2Cl)cc1 [1k] : MIC is > 500 µM

What the record says about COc1ccccc1C=Nc1ccc(C(=O)O)cc1 [1s] : MIC is > 500 µM

What the record says about O=C(O)c1ccc(N=Cc2cc(O)ccc2O)cc1 [1i] : MIC is > 500 µM

What the record says about O=C(O)c1ccc(NCc2ccccc2O)cc1 [1u, 4-[(2-Hydroxybenzyl)amino]benzoic acid] : MIC is > 500 µM

###

# Test system: Klebsiella pneumoniae D 11750/08
# Test Name: Antibacterial microdilution broth method, K. pneumoniae
# Assay Context: K. pneumoniae D 11750/08; 48 h incubation
Property Name: MIC KP 48 h

In the examples that follow, each entry is paired with its recorded MIC KP 48 h.
O=C(O)c1ccc(N=Cc2c(O)cccc2Cl)cc1; >500 µM
O=C(O)c1ccc(N=Cc2ccc(Cl)cc2O)cc1; >500 µM
O=C(O)c1ccc(N=Cc2cc(Cl)cc(Cl)c2O)cc1; >500 µM

What the record says about CC(C)(C)c1ccc(O)c(C=Nc2ccc(C(=O)O)cc2)c1 : MIC KP 48 h is >500 µM

What the record says about O=C(O)c1ccc(N=Cc2ccc(O)cc2)cc1 : MIC KP 48 h is >500 µM

###

Below: a set of entries, each annotated with reported MIC.
# Tested on: Aspergillus fumigatus 231
# Test Name: Antifungal microdilution broth method, A. fumigatus
# Format: cell-based
# Assay Context: 24 h, read-out: MIC AF 24 h

O=C(O)c1ccc(N=Cc2cc(Cl)ccc2O)cc1 [1c]; > 125 µM
O=C(O)c1ccc(NCc2ccccc2O)cc1 [1u, 4-[(2-Hydroxybenzyl)amino]benzoic acid]; > 500 µM
O=C(O)c1ccc(N=Cc2ccc([N+](=O)[O-])o2)cc1 [1r]; > 500 µM
O=C(O)c1ccc(N=Cc2cc(Cl)cc(I)c2O)cc1 [1p]; 125 µM
Nc1ccc(C(=O)O)cc1 [PABA 1, 4-aminobenzoic acid]; > 500 µM
O=C(O)c1ccc(N=Cc2ccc(Cl)cc2O)cc1 [1l]; 250 µM
COc1ccccc1C=Nc1ccc(C(=O)O)cc1 [1s]; > 500 µM
O=C(O)c1ccc(N=Cc2cccc(Cl)c2O)cc1 [1m]; 250 µM

What the record says about O=C(O)c1ccc(N=Cc2ccccc2O)cc1 [1a] : MIC is > 500 µM

What the record says about O=C(O)c1ccc(N=Cc2cc(O)ccc2O)cc1 [1i] : MIC is > 500 µM

What the record says about O=C(O)c1ccc(N=Cc2cc(I)ccc2O)cc1 [1e] : MIC is 125 µM

What the record says about Cc1ccc(O)c(C=Nc2ccc(C(=O)O)cc2)c1 [1g] : MIC is > 125 µM

What the record says about O=C(O)c1ccc(N=Cc2cc(Cl)cc(Br)c2O)cc1 [1o] : MIC is 250 µM

What the record says about O=C(O)c1ccc(N=Cc2ccc(O)cc2)cc1 [1t] : MIC is > 500 µM

What the record says about O=C(O)c1ccc(N=Cc2cc(I)cc(I)c2O)cc1 [1q] : MIC is 125 µM

What the record says about O=C(O)c1ccc(N=Cc2c(O)cccc2Cl)cc1 [1k] : MIC is > 125 µM

What the record says about O=C(O)c1ccc(N=Cc2cc([N+](=O)[O-])ccc2O)cc1 [1f] : MIC is > 500 µM

What the record says about COc1ccc(O)c(C=Nc2ccc(C(=O)O)cc2)c1 [1h] : MIC is > 500 µM

What the record says about CC(C)(C)c1ccc(O)c(C=Nc2ccc(C(=O)O)cc2)c1 [1j] : MIC is > 500 µM

What the record says about O=C(O)c1ccc(N=Cc2cc(Cl)cc(Cl)c2O)cc1 [1n] : MIC is 500 µM

What the record says about O=C(O)c1ccc(N=Cc2cc(F)ccc2O)cc1 [1b] : MIC is > 500 µM

What the record says about O=C(O)c1ccc(N=Cc2cc(Br)ccc2O)cc1 [1d] : MIC is 250 µM
